Entries and their measured bioavailabiltty (% HC) oral Cmax follow.
- assay_info: Oral bioavailability of hydrocodone conjugates (plasma hydrocodone plus hydromorphone)
- assay_setup: oral, rats; relative to hydrocodone
Residues, ends and D or L forms follow the SMILES beside them. *: point of attachment. X1 = COc1ccc2c3c1OC1C(O*)=CCC4[C@@H](C2)N(C)CC[C@]314
Report only the number, with the unit % HC understood.

compound	bioavailabiltty (% HC) oral Cmax
COc1ccc2c3c1OC1C(OC(=O)[C@H](Cc4ccccc4)NC(=O)[C@H](Cc4ccccc4)NC(=O)[C@H](Cc4ccccc4)NC(=O)[C@H](CCC(=O)O)NC(=O)[C@@H](N)CCC(=O)O)=CCC4[C@@H](C2)N(C)CC[C@]314 (stereo partly shown) [Glu2-Phe3-HC, Glu2-Phe3-Hydrocodone] (H-EEFFF-X1)	89
CC[C@H](C)[C@H](NC(=O)[C@H](CCC(=O)O)NC(=O)[C@@H](N)CCC(=O)O)C(=O)OC1=CCC2[C@H]3Cc4ccc(OC)c5c4[C@@]2(CCN3C)C1O5 (stereo partly drawn) [Glu-Glu-Ile-HC]	112
CC[C@H](C)[C@H](NC(=O)[C@@H]1CCCN1C(=O)[C@@H]1CCCN1C(=O)CNC(=O)CN)C(=O)OC1=CCC2[C@H]3Cc4ccc(OC)c5c4[C@@]2(CCN3C)C1O5 (stereo partly shown) [Gly2-Pro2-Ile-HC] (H-GGPPI-X1)	121

Shift focus to the following entry.
## Task Quick one: bioavailabiltty (% HC) oral Cmax of CC[C@H](C)[C@H](NC(=O)[C@H](Cc1ccc(O)cc1)NC(=O)[C@@H](N)Cc1ccc(O)cc1)C(=O)OC1=CCC2[C@H]3Cc4ccc(OC)c5c4[C@@]2(CCN3C)C1O5 (stereo partly drawn) [Tyr-Tyr-Ile-HC] ?
## Result 234

====

- assay_info: Intranasal bioavailability of hydrocodone conjugates
- assay_setup: rats, relative to hydrocodone
Entries and their measured bioavailabiltty (% HC) IN Cmax follow.
Report only the number, with the unit % HC understood.

## Task Quick one: bioavailabiltty (% HC) IN Cmax of CC[C@H](C)[C@H](NC(=O)[C@H](CCCCN)NC(=O)[C@@H](N)CCCCN)C(=O)OC1=CCC2[C@H]3Cc4ccc(OC)c5c4[C@@]2(CCN3C)C1O5 (stereo partly shown) ?
## Result 94

====

- assay_info: Oral bioavailability of hydrocodone conjugates (plasma hydrocodone plus hydromorphone)
- assay_setup: oral, rats; relative to hydrocodone
Residues, ends and D or L forms follow the SMILES beside them. *: point of attachment. X1 = COc1ccc2c3c1OC1C(O*)=CCC4[C@@H](C2)N(C)CC[C@]314
readout: bioavailabiltty (% HC) oral AUC
Report only the number, with the unit % HC understood.

molecule	bioavailabiltty (% HC) oral AUC
CC[C@H](C)[C@H](NC(=O)[C@@H]1CCCN1C(=O)[C@@H]1CCCN1C(=O)CNC(=O)CN)C(=O)OC1=CCC2[C@H]3Cc4ccc(OC)c5c4[C@@]2(CCN3C)C1O5 (some centres unmarked) [Gly2-Pro2-Ile-HC] (H-GGPPI-X1)	94

## Task Quick one: bioavailabiltty (% HC) oral AUC of CC[C@H](C)[C@H](NC(=O)[C@H](Cc1ccccc1)NC(=O)[C@H](Cc1ccccc1)NC(=O)[C@H](CCC(=O)O)NC(=O)[C@@H](N)CCC(=O)O)C(=O)OC1=CCC2[C@H]3Cc4ccc(OC)c5c4[C@@]2(CCN3C)C1O5 (some centres unmarked) [Glu2-Phe2-Ile-HC] (H-EEFFI-X1) ?
## Result 96
